# pEC50 annotations
biological target: CXCR7 (Homo sapiens, UniProt P25106); construct: host or cells: CHO (PathHunter CHO-CXCR7 β-arrestin cells); assay: CXCR7 β-arrestin recruitment assay (PathHunter CHO-CXCR7, agonistic assay); format: cell-based; conditions: CHO CXCR7 β-arrestin cells, agonistic assay, 90 min at 37° C., chemiluminescence; read-out: β-Arrestin EC50
Sequence (P25106 whole entry): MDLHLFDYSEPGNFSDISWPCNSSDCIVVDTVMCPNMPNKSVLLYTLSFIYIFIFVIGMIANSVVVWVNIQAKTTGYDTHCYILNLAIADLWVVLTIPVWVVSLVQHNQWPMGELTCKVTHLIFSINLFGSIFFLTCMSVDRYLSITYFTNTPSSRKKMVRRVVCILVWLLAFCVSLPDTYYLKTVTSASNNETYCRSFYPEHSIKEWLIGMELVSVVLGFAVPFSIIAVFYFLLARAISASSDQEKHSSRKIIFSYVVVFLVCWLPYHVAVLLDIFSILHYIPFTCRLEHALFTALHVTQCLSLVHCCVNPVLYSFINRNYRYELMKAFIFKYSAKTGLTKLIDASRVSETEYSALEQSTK
Square brackets hold non-standard residues; d marks the D form. Peptide text beside a SMILES is read from it. * marks the point of attachment. 1Nal = N[C@@H](Cc1cccc2ccccc12)C(=O)O; 2Nal = N[C@@H](Cc1ccc2ccccc2c1)C(=O)O; cisHyp = O=C(O)[C@@H]1C[C@H](O)CN1; Tic = O=C(O)[C@@H]1Cc2ccccc2CN1; dTic = O=C(O)[C@H]1Cc2ccccc2CN1; dPip = O=C(O)[C@H]1CCCCN1; Orn = NCCC[C@H](N)C(=O)O; Aze = O=C(O)[C@@H]1CCN1; Dab = NCC[C@H](N)C(=O)O; Bn = c1ccc(C*)cc1
# log scale: pEC50 equals minus log10 of the concentration in mol/L

Completed entries (count: 5):
N=C(N)NCCC[C@@H]1NC(=O)[C@H](Cc2ccc3ccccc3c2)NC(=O)[C@@H](Cc2ccccc2)NC(=O)[C@H](Cc2c[nH]c3ccccc23)NC(=O)[C@@H]2Cc3ccccc3CN2C(=O)[C@H]2CCCN2C1=O [compound 17, cyclo(-Trp-^DPhe-2Nal-Arg-^DPro-Tic-)] (cyclo([2Nal]R[dP][Tic]W[dF]))    7.77
NCCC[C@@H]1NC(=O)[C@H](Cc2c[nH]c3ccccc23)NC(=O)[C@@H](Cc2ccccc2)NC(=O)[C@H](Cc2c[nH]c3ccccc23)NC(=O)[C@@H]2Cc3ccccc3CN2C(=O)[C@H]2CCCN2C1=O [compound 21, cyclo(-Trp-^DPhe-Trp-Orn-^DPro-Tic-)] (cyclo([Orn][dP][Tic]W[dF]W))    7.92
N=C(N)NCCC[C@@H]1NC(=O)[C@H](Cc2c[nH]c3ccccc23)NC(=O)[C@@H](Cc2ccccc2)NC(=O)[C@H](Cc2c[nH]c3ccccc23)NC(=O)[C@@H]2CCCN2C(=O)[C@H]2Cc3ccccc3CN2C1=O [Ex. 40, cyclo(-Trp-^DPhe-Trp-Arg-^DTic-Pro-)] (cyclo(PW[dF]WR[dTic]))    7.08
N=C(N)NCCC[C@@H]1NC(=O)[C@H](Cc2c[nH]c3ccccc23)NC(=O)[C@@H](Cc2ccccc2)NC(=O)[C@H](Cc2c[nH]c3ccccc23)NC(=O)[C@@H]2C[C@H](OCc3ccccc3)CN2C(=O)[C@H]2CCCN2C1=O [Ex. 27] (cyclo(R[dP][cisHyp](Bn)W[dF]W))    8.77
NCC[C@@H]1NC(=O)[C@H](Cc2c[nH]c3ccccc23)NC(=O)[C@@H](Cc2ccccc2)NC(=O)[C@H](Cc2c[nH]c3ccccc23)NC(=O)[C@@H]2Cc3ccccc3CN2C(=O)[C@H]2CCCN2C1=O [compound 22, cyclo(-Trp-^DPhe-Trp-Dab-^DPro-Tic-)] (cyclo([Dab][dP][Tic]W[dF]W))    7.90

Give the value of pEC50 reported for the following: CC[C@H](C)[C@@H]1NC(=O)[C@@H](CCCNC(=N)N)NC(=O)[C@H](Cc2cccc3ccccc23)NC(=O)[C@@H]2CCN2C(=O)[C@H]2CCCN2C(=O)[C@H](CCCNC(=N)N)NC1=O [compound 43, cyclo(-1Nal-^DArg-Ile-Arg-^DPro-Azt-)] (cyclo([1Nal][dR]IR[dP][Aze]))
7.39

Look up and report measured pEC50 for this entry: N=C(N)NCCC[C@@H]1NC(=O)[C@H](Cc2c[nH]c3ccccc23)NC(=O)[C@@H](Cc2ccccc2)NC(=O)[C@H](Cc2c[nH]c3ccccc23)NC(=O)[C@@H]2CCCN2C(=O)[C@H]2CCCCN2C1=O [compound 41, cyclo(-Trp-^DPhe-Trp-Arg-^DPip-Pro-)] (cyclo(PW[dF]WR[dPip]))
7.10

Name the recorded pEC50 of the item N=C(N)NCCC[C@@H]1NC(=O)[C@H](Cc2c[nH]c3ccccc23)NC(=O)[C@@H](Cc2c[nH]cn2)NC(=O)[C@H](Cc2c[nH]c3ccccc23)NC(=O)[C@@H]2CCN2C(=O)[C@H]2CCCN2C1=O [compound 48, cyclo(-Trp-^DHis-Trp-Arg-^DPro-Azt-)] (cyclo([Aze]W[dH]WR[dP])) in your answer.
6.47

The measurements presented in this section are drawn from patent US8629112B2.
